- protocol_description: Lipophilicity, log D of the compound at pH 7.4 by shake flask method
- Assay type: physicochemical
- condition: buffer
Form field: logD (one value per entry).
I only need the number, thanks.

# count of solved cases: 3
                              smiles_string  observed_result
0  NC(=O)c1ccc(CNC(=O)c2nc(-c3ccc(F)cc3)n(CC[C@@H](O)C[C@@H](O)CC(=O)[O-])c2C2CC2)cc1.[Na+]             -1.1
1  CN(C)S(=O)(=O)c1ccc(CNC(=O)c2nc(-c3ccc(F)cc3)n(CC[C@@H](O)C[C@@H](O)CC(=O)[O-])c2C2CC2)cc1.[Na+]            -0.46
2  COc1ccccc1CNC(=O)c1nc(-c2ccc(F)cc2)n(CC[C@@H](O)C[C@@H](O)CC(=O)[O-])c1C1CC1.[Na+]             0.16

Turning now to a further molecule:
Inquiry: State the recorded logD for this entry: CC(C)c1c(C(=O)NCc2ccccc2)nc(-c2ccc(F)cc2)n1CC[C@@H](O)C[C@@H](O)CC(=O)[O-].[Na+]
Reply text: 0.64

---

- protocol_description: Terminal half life in human plasma at 1 mg administered as single dose
- Assay type: ADME, cell-free
- condition: read-out: beta t1/2 (converted)
property_name: half-life

Inquiry: Looking for the measured half-life of Cc1ccc(CNC(=O)c2nn(-c3ccc(F)cc3)c(CC[C@@H](O)C[C@@H](O)CC(=O)O)c2C(C)C)cc1 , can you help?
Reply text: 2.55 h

---

- protocol_description: Terminal half life in human plasma at 160 mg administered as single dose
- Format: ADME, cell-free
- condition: read-out: beta t1/2 (converted)
property_name: half-life (h)
Your answer should be a plain number; it is taken to be in h.

Inquiry: Which measured half-life value corresponds to Cc1ccc(CNC(=O)c2nn(-c3ccc(F)cc3)c(CC[C@@H](O)C[C@@H](O)CC(=O)O)c2C(C)C)cc1 ?
Reply text: 8.87

---

- system_under_test: OATP1B1 (Homo sapiens, UniProt Q9Y6L6)
- Sequence (Q9Y6L6 whole entry): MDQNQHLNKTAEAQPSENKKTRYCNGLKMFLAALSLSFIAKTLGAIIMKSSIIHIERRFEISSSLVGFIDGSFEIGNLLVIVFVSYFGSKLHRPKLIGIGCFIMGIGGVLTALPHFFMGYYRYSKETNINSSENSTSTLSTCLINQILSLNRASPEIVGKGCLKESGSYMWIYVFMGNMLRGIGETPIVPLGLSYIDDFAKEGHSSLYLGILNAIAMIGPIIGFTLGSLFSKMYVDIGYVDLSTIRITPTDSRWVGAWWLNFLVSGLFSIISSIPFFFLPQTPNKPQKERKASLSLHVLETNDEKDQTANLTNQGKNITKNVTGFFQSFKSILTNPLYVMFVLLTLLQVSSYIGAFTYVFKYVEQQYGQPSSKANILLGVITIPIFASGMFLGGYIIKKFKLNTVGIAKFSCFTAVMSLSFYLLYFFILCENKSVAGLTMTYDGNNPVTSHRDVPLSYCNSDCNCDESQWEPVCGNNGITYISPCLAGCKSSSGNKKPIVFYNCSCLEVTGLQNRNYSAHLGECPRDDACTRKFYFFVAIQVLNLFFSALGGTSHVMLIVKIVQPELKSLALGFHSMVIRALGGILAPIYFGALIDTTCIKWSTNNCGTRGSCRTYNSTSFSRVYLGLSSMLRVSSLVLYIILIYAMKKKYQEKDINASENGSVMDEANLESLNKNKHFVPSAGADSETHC
- protocol_description: Drug uptake by human hepatic OATP1B1 transporter expressed in HEK293 cells at 10 uM relative to wild type HEK293 cells
- Format: ADME, cell-based
- condition: HEK293 cells expressing OATP1B1, read-out: FC
Entries and their measured uptake ratio at 10 µM follow.
# answer = number (no unit)

                              smiles_string  observed_result
0  Cc1ccc(CNC(=O)c2nn(-c3ccc(F)cc3)c(CC[C@@H](O)C[C@@H](O)CC(=O)O)c2C(C)C)cc1             18.4

Inquiry: Test system OATP1B1 (Homo sapiens, UniProt Q9Y6L6); read-out uptake ratio at 10 µM; what value for Cc1ncc2n1-c1ccc(Cl)cc1C(c1ccccc1F)=NC2 ?
Reply text: 0.9

Inquiry: Find the measured uptake ratio at 10 µM: item CC[C@H](C)C(=O)O[C@H]1C[C@H](O)C=C2C=C[C@H](C)[C@H](CC[C@@H](O)C[C@@H](O)CC(=O)O)[C@H]21 , target or system OATP1B1 (Homo sapiens, UniProt Q9Y6L6).
Reply text: 223

Inquiry: Lab note: need uptake ratio at 10 µM with OATP1B1 (Homo sapiens, UniProt Q9Y6L6) for entry CC(C)c1nc(N(C)S(C)(=O)=O)nc(-c2ccc(F)cc2)c1/C=C/[C@@H](O)C[C@@H](O)CC(=O)O , please look it up.
Reply text: 69.6

Inquiry: For OATP1B1 (Homo sapiens, UniProt Q9Y6L6), provide uptake ratio at 10 µM of O=C([O-])C[C@H](O)C[C@H](O)CCn1c(-c2ccc(F)cc2)nc(C(=O)NCc2cccc(F)c2)c1C1CC1.[Na+] please.
Reply text: 84.9
